System: anti-amyloid oligomer antibody A11
Assay: Slot blot assay with anti-amyloid oligomer antibody A11
Format: binding
Settings: 10 μg recombinant protein; A11 at 1:5,000 dilution
property-measured: reactivity with anti-amyloid oligomer antibody A11

INSERT INTO measurements (molecule, result) VALUES
  ('L14A (protein) ATDAASLVGELQAADAEYQNLANQEEARFNEERAQADAARQALAQNEQVYNELSQRAQRLQAEANTRFYKSQYQELASKYEDALKKLEAEMEQQKAVISDFEKIQALRAGN', 'did not react'),
  ('L76A (protein) ATDAASLVGELQALDAEYQNLANQEEARFNEERAQADAARQALAQNEQVYNELSQRAQRLQAEANTRFYKSQYQEAASKYEDALKKLEAEMEQQKAVISDFEKIQALRAGN', 'did not react'),
  ('FadAc: recombinant active heterogeneous complex of pre-FadA and mFadA (protein) chain 1: MKKFLLLAVLAVSASAFAATDAASLVGELQALDAEYQNLANQEEARFNEERAQADAARQALAQNEQVYNELSQRAQRLQAEANTRFYKSQYQELASKYEDALKKLEAEMEQQKAVISDFEKIQALRAGN chain 2: ATDAASLVGELQALDAEYQNLANQEEARFNEERAQADAARQALAQNEQVYNELSQRAQRLQAEANTRFYKSQYQELASKYEDALKKLEAEMEQQKAVISDFEKIQALRAGN', 'reacted'),
  ('S71A (protein) chain 1: MKKFLLLAVLAVSASAFAATDAASLVGELQALDAEYQNLANQEEARFNEERAQADAARQALAQNEQVYNELSQRAQRLQAEANTRFYKSQYQELASKYEDALKKLEAEMEQQKAVISDFEKIQALRAGN chain 2: ATDAASLVGELQALDAEYQNLANQEEARFNEERAQADAARQALAQNEQVYNELSQRAQRLQAEANTRFYKAQYQELASKYEDALKKLEAEMEQQKAVISDFEKIQALRAGN', 'reacted');
